- Tested on: OE21 (Esophageal Squamous Cell Carcinoma);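 also: after 72 h of two-drug dosing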
- PROTOCOL: Bliss excess, mean over the matrix (fraction); higher = more synergy
MEASURED_METRIC: Bliss excess

Consider the worked cases shown below.
CC1(C)CCC(CN2CCN(c3ccc(C(=O)NS(=O)(=O)c4ccc(NCC5CCOCC5)c([N+](=O)[O-])c4)c(Oc4cnc5[nH]ccc5c4)c3)CC2)=C(c2ccc(Cl)cc2)C1 [Venetoclax] + COc1cc(Nc2ncc3c(n2)-c2ccc(Cl)cc2C(c2c(F)cccc2OC)=NC3)ccc1C(=O)O [Alisertib] (first compound max 1 µM, 7x7, partner max 10 µM) : 0.0433
Cc1c2c(nn1C)CSCc1cc(n(C)n1)CSc1cc(c3ccccc3c1)OCCCc1c(C(=O)O)n(C)c3c-2c(Cl)ccc13 [AZD5991] + Cc1cc2ncnn2cc1Nc1ncc2c(n1)n(C1CCOCC1)c(=O)n2C [AZD7648] (first compound max 1 µM, 7x7, partner max 10 µM) : -0.0387
NC1(C(=O)N[C@@H](CCO)c2ccc(Cl)cc2)CCN(c2ncnc3[nH]ccc23)CC1 [Capivasertib] + CCN(CCO)CCCOc1ccc2c(Nc3cc(CC(=O)Nc4cccc(F)c4)[nH]n3)ncnc2c1 [AZD2811] (first compound max 10 µM, 7x7, partner max 1 µM) : 0.0098

# context switch: different compound, same Bliss excess
Look at this compound and give its reported Bliss excess. NC1(C(=O)N[C@@H](CCO)c2ccc(Cl)cc2)CCN(c2ncnc3[nH]ccc23)CC1 [Capivasertib] + Cn1cnc2c(F)c(Nc3ccc(Br)cc3Cl)c(C(=O)NOCCO)cc21 [Selumetinib] (first compound max 10 µM, 7x7, partner max 10 µM)
0.0761
